Target: Acyl-CoA: Cholesterol Acyltransferase (ACAT) (Rattus norvegicus)
Construct: Microsomes were obtained by differential centrifugation; from tissue; host or cells: liver microsomes of male Sprague Dawley rats
Sequence (Q7TQM4 1-524): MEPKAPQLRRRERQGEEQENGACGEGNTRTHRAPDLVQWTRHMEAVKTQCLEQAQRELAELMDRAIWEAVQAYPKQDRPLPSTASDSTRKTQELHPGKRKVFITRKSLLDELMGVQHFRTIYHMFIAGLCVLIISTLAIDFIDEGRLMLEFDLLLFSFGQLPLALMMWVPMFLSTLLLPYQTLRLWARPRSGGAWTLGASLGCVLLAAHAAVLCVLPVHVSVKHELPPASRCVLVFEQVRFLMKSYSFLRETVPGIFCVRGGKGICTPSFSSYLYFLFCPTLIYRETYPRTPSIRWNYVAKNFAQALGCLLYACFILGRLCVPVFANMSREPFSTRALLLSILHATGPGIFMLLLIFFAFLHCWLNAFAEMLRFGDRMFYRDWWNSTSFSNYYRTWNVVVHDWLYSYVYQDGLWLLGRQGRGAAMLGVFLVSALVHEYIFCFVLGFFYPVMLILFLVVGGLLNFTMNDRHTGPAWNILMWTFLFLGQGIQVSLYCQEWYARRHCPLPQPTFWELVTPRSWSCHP
Assay: Inhibition of acyl-CoA: cholesterol acyltransferase (ACAT) in hepatic microsomes (in vitro)
Type: biochemical, rat (male Sprague Dawley)
Settings: rat hepatic microsomes, 75 μM 14C-oleoyl-CoA, pH 7.4, 37° C.; read-out: In Vitro ACAT IC50
Measured Parameter: log10 of IC50 (log10 of the value in nM)

• CCCCCCCCNC(=O)N(CCCCCCC)CCCCCSc1nc(-c2ccccc2)c(-c2ccccc2)[nH]1 [Example 97] = 1.40
• CCCCCCCN(CCCCCSc1nc(C2CCCCC2)c(C2CCCCC2)[nH]1)C(=O)Nc1ccc(F)cc1F [Example 199] = 1.30
• COc1ccc(-c2nc(SCCCCCN(C)C(=O)Nc3ccc(F)cc3F)[nH]c2-c2ccc(OC)cc2)cc1 [Example 204] = 2.70
• CCCCCCCN(CCCCCSc1nc(-c2ccc(OC)cc2)c(-c2ccc(OC)cc2)[nH]1)C(=O)CC1CCCCC1 [Example 355] = 1.00
• CCCCCCCN(CCCCCSc1nc(-c2ccc(OC)cc2)c(-c2ccc(OC)cc2)[nH]1)CCc1ccc(F)cc1F [Example 353] = 2.38
• CCCCCCCN(CCCCCSc1nc(-c2ccc(C)cc2)c(-c2ccc(C)cc2)[nH]1)C(=O)Nc1ccc(F)cc1F [Example 122] = 1.90
• CCCCCCCN(CCCCCSc1nc(-c2ccc(N(C)C)cc2)c(-c2ccc(N(C)C)cc2)[nH]1)C(=O)NC(C)C [Example 205] = 1.87
• CCCCCCCN(CCCCCSc1nc(-c2ccccc2)c(-c2ccccc2)n1-c1ccccc1)C(=O)Nc1ccc(F)cc1F [Example 20] = 1.30
• CCCCCCCN(CCCC)CCCCCSc1nc(-c2ccccc2)c(-c2ccccc2)[nH]1 [Example 352] = 2.48
• CCCCN(CCCCCCCCSc1nc(-c2ccccc2)c(-c2ccccc2)[nH]1)C(=O)NC(C)C [Example 262] = 2.30
• CCCCCCCN(CCCCCSc1nc(C(C)C)c(C(C)C)[nH]1)C(=O)NC(C)C [Example 210] = 1.23
• CCCCCCCN(CCCCCSc1nc(-c2ccccc2)c(-c2ccccc2)[nH]1)C(=O)Nc1c(Cl)cccc1Cl [Example 64] = 1.48
• CCCCCCCN(CCCCCSc1nc(-c2ccc(OC)cc2)c(-c2ccc(OC)cc2)[nH]1)C(=O)Cc1ccc(Cl)c(Cl)c1 [Example 349] = 2.30
• CCCCCCCN(CCCCCSc1nc2c([nH]1)-c1ccccc1Oc1ccccc1-2)C(=O)Nc1ccc(F)cc1F [Example 212] = 1.78
• CCCCCCCN(CCCCCSc1nc(CCC)c(CCC)[nH]1)C(=O)Nc1ccc(F)cc1F [Example 193] = 1.78
• CCCCCCCN(CCCCCSc1nc(-c2ccc(F)cc2)c(-c2ccc(F)cc2)[nH]1)C(=O)Nc1ccc(F)cc1F [Example 114] = 1.60
• CCCCCCCN(CCCCCSc1nc(-c2ccccn2)c(-c2ccccn2)[nH]1)C(=O)Nc1ccc(F)cc1F [Example 194] = 3.28

Each recorded value in this set is attributed to patent US5166214A.
